Exercise: for every item that follows, state its recorded Trimeric HA Binding: RLU.
- assayed_system: recombinant soluble homotrimeric HA of A/Netherlands/219/03 (H7N7) (Influenza A virus A/Netherlands/219/03(H7N7))
- test_protocol: HA microarray, BCC supernatant
- condition_description: remark: other sources report otherwise
Give bare numbers, in RLU.

Reference set (2 entries):
binder	experimental_readout	result
TCN-535 (5246_P19) (antibody, V domains shown) VH: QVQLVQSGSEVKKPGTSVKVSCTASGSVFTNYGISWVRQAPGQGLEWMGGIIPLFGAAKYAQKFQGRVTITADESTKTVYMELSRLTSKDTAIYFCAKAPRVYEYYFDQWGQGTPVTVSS VL: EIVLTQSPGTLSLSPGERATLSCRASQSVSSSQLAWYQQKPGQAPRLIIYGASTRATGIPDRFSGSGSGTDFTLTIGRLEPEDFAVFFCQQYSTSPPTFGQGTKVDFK	Trimeric HA Binding: RLU	4760
TCN-539 (5056_A08) (antibody, V domains shown) VH: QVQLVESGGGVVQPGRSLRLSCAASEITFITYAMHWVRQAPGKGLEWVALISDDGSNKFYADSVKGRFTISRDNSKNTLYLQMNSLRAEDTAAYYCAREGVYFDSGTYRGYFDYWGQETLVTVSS VL: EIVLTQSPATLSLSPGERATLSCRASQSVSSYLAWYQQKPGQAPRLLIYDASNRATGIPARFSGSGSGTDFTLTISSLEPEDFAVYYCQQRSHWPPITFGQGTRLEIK	Trimeric HA Binding: RLU	1700

Attention now shifts to the item below.
# query: Trimeric HA Binding: RLU of entry TCN-554 (5277_M05) (antibody, V domains shown) VH: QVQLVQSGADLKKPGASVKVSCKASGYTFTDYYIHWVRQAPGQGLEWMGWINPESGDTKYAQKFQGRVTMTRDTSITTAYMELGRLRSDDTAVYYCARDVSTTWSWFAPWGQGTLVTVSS VL: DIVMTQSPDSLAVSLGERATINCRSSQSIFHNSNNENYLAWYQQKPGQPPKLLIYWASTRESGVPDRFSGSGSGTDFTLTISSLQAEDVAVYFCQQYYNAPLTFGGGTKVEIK
610
